Recorded values, source patent US9815851B2.

Study Target: RORγ (UniProt P51449)
Test Description: RORγ Gal4 Reporter Gene Assay in 293T cells (firefly and renilla luciferase)
Type: cell-based, human
Experimental Conditions: second value of the cell; Gal4 reporter gene assay in 293T cells, firefly luciferase
We begin with a simple list: items and their reported pIC50 (FF).
Respond with the number and no other words.

{"Compound": "Cc1c(C(=O)N[C@H]2CC[C@H](C(=O)O)CC2)cc(-c2ccc(S(=O)(=O)NC(C)(C)C)c(C(F)(F)F)c2)n1CC1CCCCC1 [17/223]", "Study Target": "RORγ (UniProt P51449)", "pIC50 (FF)": 7.1}
{"Compound": "Cc1c(C(=O)NC2COC2)cc(-c2cc(C(F)(F)F)cc(C3(C)CC3)c2)n1CC1CCCCC1 [1/79]", "Study Target": "RORγ (UniProt P51449)", "pIC50 (FF)": 7.2}
{"Compound": "CC(=O)N1CC(NC(=O)c2cc(-c3cc(C(C)(C)C)cc(C(C)(C)C)c3)n(CC3CCCCC3)c2C)C1 [Example 5]", "Study Target": "RORγ (UniProt P51449)", "pIC50 (FF)": 7.0}
{"Compound": "CC(C)(C)NS(=O)(=O)c1ccc(-c2cc(C(=O)NCCC(C)(C)C(=O)O)c(F)n2CC2CCCCC2)cc1C(F)(F)F [20/6]", "Study Target": "RORγ (UniProt P51449)", "pIC50 (FF)": 6.9}
{"Compound": "Cc1c(C(=O)NC2CCOCC2)cc(-c2ccc(-c3cnn(C(C)(C)C)c3)c(C(C)(C)C)c2)n1CC1CCCCC1 [26/2]", "Study Target": "RORγ (UniProt P51449)", "pIC50 (FF)": 7.2}

Now let's try a different one.
The compound identified as CCNC(=O)c1cc(-c2ccc(S(=O)(=O)NC(C)(C)C)c(C(C)(C)C)c2)n(CC2CCCCC2)c1C [17/98] registered its pIC50 (FF) at 6.8

* * *

Study Target: RORγ (UniProt P51449)
Sequence (P51449 1-518): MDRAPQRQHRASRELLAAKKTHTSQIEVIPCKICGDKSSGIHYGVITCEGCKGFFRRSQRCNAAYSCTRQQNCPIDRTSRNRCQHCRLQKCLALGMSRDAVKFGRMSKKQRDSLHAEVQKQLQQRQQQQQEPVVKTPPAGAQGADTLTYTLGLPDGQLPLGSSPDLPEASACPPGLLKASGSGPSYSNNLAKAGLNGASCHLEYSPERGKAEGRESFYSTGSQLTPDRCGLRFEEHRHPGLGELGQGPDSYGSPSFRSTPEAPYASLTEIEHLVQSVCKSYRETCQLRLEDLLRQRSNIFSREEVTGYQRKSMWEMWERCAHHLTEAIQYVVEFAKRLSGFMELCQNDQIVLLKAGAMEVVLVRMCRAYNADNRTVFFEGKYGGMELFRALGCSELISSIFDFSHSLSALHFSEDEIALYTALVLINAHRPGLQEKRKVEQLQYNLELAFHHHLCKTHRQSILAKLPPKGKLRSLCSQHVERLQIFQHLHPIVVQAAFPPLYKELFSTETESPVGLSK
Test Description: RORγ Gal4 Reporter Gene Assay in 293T cells (firefly and renilla luciferase)
Format: cell-based, human
Experimental Conditions: second value of the cell; Gal4 reporter gene assay in 293T cells, firefly luciferase
Experimental Endpoint: pIC50 (FF)
Respond with the number and no other words.

Reference set (5 entries):
{"Smiles Str": "CCC(C)(C)NS(=O)(=O)c1ccc(-c2cc(C(=O)N[C@H]3C[C@H](C(=O)O)C3)c(C)n2CC2CCCCC2)c(Cl)c1C", "Data Value": 7.9}
{"Smiles Str": "Cc1c(C(=O)NCC(C)(C)C(=O)N(C)C)cc(-c2cc(C(C)(C)C)c3c(c2)C2(CCO3)CC2)n1CC1CCCCC1", "Data Value": 6.9}
{"Smiles Str": "Cc1c(C(=O)NCCCN2CCOCC2)cc(-c2cc(C(C)(C)C)cc(C(C)(C)C)c2)n1CC1CCCCC1", "Data Value": 5.8}
{"Smiles Str": "Cc1c(C(=O)NCCc2noc(=O)[nH]2)cc(-c2ccc(S(=O)(=O)NC(C)(C)C)c(C(F)(F)F)c2)n1CC1CCCCC1", "Data Value": 6.4}
{"Smiles Str": "Cc1c(C(=O)NCCN2CCOCC2)cc(-c2cc(C(C)(C)O)cc(C3(C)CC3)c2)n1CC1CCCCC1", "Data Value": 6.3}

The compound identified as Cc1c(C(=O)NC2CCOCC2)cc(-c2ccc(S(=O)(=O)NC(C)(C)CC(F)(F)F)c(C(F)(F)F)c2)n1CC1CCCCC1 registered its pIC50 (FF) at 8.2

The compound identified as Cc1c(C(=O)NCC(C)(C)C(N)=O)cc(-c2cc(C(C)(C)C)cc(C3(C)CC3)c2)n1CC1CCCCC1 registered its pIC50 (FF) at 7.7
